All values here come from patent US20200071424A1.

# System: T1, human LPL (lipoprotein lipase) (human, UniProt P06858 28-475)
# T1 sequence (looked up): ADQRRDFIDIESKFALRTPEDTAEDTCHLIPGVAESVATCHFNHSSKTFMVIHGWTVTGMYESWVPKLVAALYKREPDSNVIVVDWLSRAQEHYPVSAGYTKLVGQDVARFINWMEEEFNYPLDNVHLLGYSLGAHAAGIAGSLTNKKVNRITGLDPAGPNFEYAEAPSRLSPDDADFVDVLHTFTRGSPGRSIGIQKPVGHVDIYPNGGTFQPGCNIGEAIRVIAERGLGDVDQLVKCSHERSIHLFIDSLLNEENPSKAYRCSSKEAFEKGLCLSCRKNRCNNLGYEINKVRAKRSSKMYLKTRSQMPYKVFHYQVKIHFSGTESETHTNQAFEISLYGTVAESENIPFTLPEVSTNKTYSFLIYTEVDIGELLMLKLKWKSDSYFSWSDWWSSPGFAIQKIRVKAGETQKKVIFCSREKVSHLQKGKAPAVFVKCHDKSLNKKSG
# Experiment Description: cell-based or functional assay
Readout Kind: Neutralizing activity IC50

Solved entries (count: 2):
Binder: h16B3-S2 (antibody, V domains shown, humanized) VH: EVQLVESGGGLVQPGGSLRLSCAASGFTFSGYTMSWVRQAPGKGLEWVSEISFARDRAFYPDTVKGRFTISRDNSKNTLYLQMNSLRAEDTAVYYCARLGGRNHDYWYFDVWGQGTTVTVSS VL: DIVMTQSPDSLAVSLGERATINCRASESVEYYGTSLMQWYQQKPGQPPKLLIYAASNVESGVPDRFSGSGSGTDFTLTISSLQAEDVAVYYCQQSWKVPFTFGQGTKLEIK
Neutralizing activity IC50: > 400 nM
--
Binder: h23H8-S2 (antibody, V domains shown) VH: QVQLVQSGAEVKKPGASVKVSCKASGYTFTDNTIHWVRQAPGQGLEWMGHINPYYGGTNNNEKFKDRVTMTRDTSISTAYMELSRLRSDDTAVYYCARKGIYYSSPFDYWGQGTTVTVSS VL: DIQMTQSPSSLSASVGDRVTITCRASQDINNYLNWYQQKPGKAPKLLISYTSKLHSGVPSRFSGSGSGTDFTLTISSLQREDFATYYCQQGNTLPFTFGQGTKLEIK
Neutralizing activity IC50: > 400 nM

Consider the record given below.
Report Neutralizing activity IC50, nothing else, for this binder: h55A1-S1 (antibody, V domains shown, humanized) VH: QVQLVQSGSELKKPGASVKVSCKASGYTFTNYGMNWVRQAPGQGLEWMGWINTYSGVPTYAGDFKGRFVFSLDTSVSTAYLQISSLKAEDTAVYYCARRGYYGRRYFDVWGKGTTVTVSS VL: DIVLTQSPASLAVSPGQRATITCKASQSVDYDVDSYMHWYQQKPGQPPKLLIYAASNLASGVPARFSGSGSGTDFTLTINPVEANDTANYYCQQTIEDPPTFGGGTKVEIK > 1800 nM
